# SYSTEM NAME: androgen receptor (Homo sapiens)
# Sequence (P10275 whole entry Q868H, form open): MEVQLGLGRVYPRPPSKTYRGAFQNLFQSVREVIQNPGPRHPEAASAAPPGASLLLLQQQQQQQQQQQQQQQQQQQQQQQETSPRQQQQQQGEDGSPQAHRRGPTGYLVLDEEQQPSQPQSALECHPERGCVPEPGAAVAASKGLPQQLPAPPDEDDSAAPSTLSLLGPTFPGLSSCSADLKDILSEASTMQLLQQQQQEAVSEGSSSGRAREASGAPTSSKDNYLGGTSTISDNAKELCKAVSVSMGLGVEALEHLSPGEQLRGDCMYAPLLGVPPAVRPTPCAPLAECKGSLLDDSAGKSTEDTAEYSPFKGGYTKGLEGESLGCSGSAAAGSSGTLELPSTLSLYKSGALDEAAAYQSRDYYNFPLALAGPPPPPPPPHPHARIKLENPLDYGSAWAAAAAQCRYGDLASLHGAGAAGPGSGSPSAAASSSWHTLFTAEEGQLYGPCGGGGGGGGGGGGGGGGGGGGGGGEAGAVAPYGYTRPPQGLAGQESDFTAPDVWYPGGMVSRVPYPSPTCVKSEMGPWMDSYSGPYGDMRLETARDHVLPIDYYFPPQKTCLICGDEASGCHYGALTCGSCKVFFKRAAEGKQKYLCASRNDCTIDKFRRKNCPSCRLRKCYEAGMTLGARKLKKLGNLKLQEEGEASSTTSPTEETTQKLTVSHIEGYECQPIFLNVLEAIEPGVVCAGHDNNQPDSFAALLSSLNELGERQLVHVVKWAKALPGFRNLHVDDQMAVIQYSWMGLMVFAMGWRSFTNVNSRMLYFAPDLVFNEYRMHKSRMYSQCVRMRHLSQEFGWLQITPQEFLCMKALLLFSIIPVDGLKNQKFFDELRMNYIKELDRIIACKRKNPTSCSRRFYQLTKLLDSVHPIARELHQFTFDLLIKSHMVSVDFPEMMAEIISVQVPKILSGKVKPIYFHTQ
# MEASUREMENT NOTES: AR Antagonist Cell Assay (MMTV-luciferase reporter, DHT-induced)
# TEST PARAMETERS: MDA-MB453-MMTV clone 54-19 cells, 100 pM DHT, 17 hr
pIC50: −log10 of the molar value.
OBSERVABLE: pIC50

Study these solved cases before continuing.
{"MOLECULE SMILES": "CCCCN(CC)S(=O)(=O)c1ccc2[nH]c(=O)cc(C(F)(F)F)c2c1", "READOUT NUMBER": 6.70}
{"MOLECULE SMILES": "CC(C)Oc1cccc(NS(=O)(=O)c2ccc3c(c2)c(C(F)(F)F)cc(=O)n3C)c1", "READOUT NUMBER": 5.21}
{"MOLECULE SMILES": "COc1ccccc1CCNS(=O)(=O)c1ccc2[nH]c(=O)cc(C(F)(F)F)c2c1", "READOUT NUMBER": 6.77}
{"MOLECULE SMILES": "CN(CCc1ccccc1)S(=O)(=O)c1ccc2[nH]c(=O)cc(C(F)(F)F)c2c1", "READOUT NUMBER": 6.82}
{"MOLECULE SMILES": "O=c1cc(C(F)(F)F)c2cc(S(=O)(=O)N(CCO)Cc3ccccc3)ccc2[nH]1", "READOUT NUMBER": 5.88}

[P] COc1ccc(OC)c(NS(=O)(=O)c2ccc3[nH]c(=O)cc(C(F)(F)F)c3c2)c1
[Q] O=c1cc(C(F)(F)F)c2cc(S(=O)(=O)NCCSCc3c(F)cccc3Cl)ccc2[nH]1
Input: Look at P and Q . Which one has the lower recorded pIC50 number? Your answer should be the label attached to the chosen record.
Output: P
(P: 5.10, Q: 5.66)

[I] CCCN(CC1CC1)S(=O)(=O)c1ccc2[nH]c(=O)cc(C(F)(F)F)c2c1
[II] Cc1ccccc1CNS(=O)(=O)c1ccc2[nH]c(=O)cc(C(F)(F)F)c2c1
[III] O=c1cc(C(F)(F)F)c2cc(S(=O)(=O)N[C@H]3[C@@H]4CC[C@@H](C4)[C@H]3CO)ccc2[nH]1
[IV] CCCCN(CC)S(=O)(=O)c1ccc2c(c1)c(C(F)(F)F)cc(=O)n2C
[V] CC(C)c1ccc(NS(=O)(=O)c2ccc3[nH]c(=O)cc(C(F)(F)F)c3c2)cc1
Input: Ascending sort, pIC50. Please, when replying, give the labels in the order that was requested.
Output: IV, II, III, I, V

[a] COCCNS(=O)(=O)c1ccc2[nH]c(=O)cc(C(F)(F)F)c2c1
[b] O=c1cc(C(F)(F)F)c2cc(S(=O)(=O)NCc3ccccc3OC(F)F)ccc2[nH]1
Input: Field: lower pIC50 | Options: a / b Write the label of whichever entry you select.
Output: a

[a] Cc1ccc(F)cc1CNS(=O)(=O)c1ccc2[nH]c(=O)cc(C(F)(F)F)c2c1
[b] Cn1c(=O)cc(C(F)(F)F)c2cc(S(=O)(=O)NCCSC(C)(C)C)ccc21
[c] CCc1ccc(NS(=O)(=O)c2ccc3[nH]c(=O)cc(C(F)(F)F)c3c2)cc1
Input: Could you please order the items by pIC50, going from the lowest number to the highest? In plain terms: list the labels in the order you were asked to.
Output: a, b, c

[a] Cn1c(=O)cc(C(F)(F)F)c2cc(S(=O)(=O)NCCC3=CCCCC3)ccc21
[b] Cc1cccc(Cl)c1CNS(=O)(=O)c1ccc2[nH]c(=O)cc(C(F)(F)F)c2c1
[c] O=c1cc(C(F)(F)F)c2cc(S(=O)(=O)Nc3cccc(CO)c3)ccc2[nH]1
Input: # desc sort on pIC50 across 3 compounds // respond by listing labels in the order requested
Output: a, c, b

[I] Cn1c(=O)cc(C(F)(F)F)c2cc(S(=O)(=O)NCCc3ccccc3)ccc21
[II] CCOc1ccc(NS(=O)(=O)c2ccc3c(c2)c(C(F)(F)F)cc(=O)n3C)cc1
Input: Higher pIC50 between I and II ? Provide the label of your selected option as the answer.
Output: I
(I: 5.81, II: 5.42)
